Consider the following sequences; for each one, report its PBM binding z-score.
Tested on: RARg:RXRa (NR concentration 270 nM, RXRa partner concentration 90 nM)
Experiment: PBM binding z-score (relative to random genomic background probes); higher = stronger binding; sequences stand for … in GC…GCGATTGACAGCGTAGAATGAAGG
Answers are plain numbers.

ATATGTAGGTTACTTCCGGGTCATTCAGGCTATG ... 3.9
GGAACGAGGACAAAGTTGATAGCATCTGTCGACG ... 0.769
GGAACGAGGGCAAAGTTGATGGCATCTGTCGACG ... 2.05

Okay, here is my list. What is PBM binding z-score for each of these?
1. ACTAGCAGGCCAAGGTTCACTCAAGATTAGTCCG
2. CTCGGAAGGTCGGTTGAGGTGAGTATACGGATAA
3. CATACTGGGCCATCAGGTCATTGATATCAACGTT
4. GCTAGTTGGTCAGTAAAAGGTCACACTCCGGTCG
5. TCTATTAGTTGAATAGGGCAACCGAAACAGCGGA
6. TGAATGAGGTAAAAGATCAGGGAACGTGGCGTCG
7. TCATATAGGTAAATGCTAGGTGAAGGTCCGATCT
8. CCTAGTTGGTCAGGAGGTCACACAACGGATATGA

Response line:
1: 1.53; 2: 1.28; 3: 2.53; 4: 5.14; 5: 0.99; 6: 0.328; 7: 0.474; 8: 5.09

Batch: PBM binding z-score for all items listed.
1. GCTAGCTGGTCAGTAAAAGGTCACACACCGGTCG
2. AGTCAAAGTTCACTAGGTAACGGAAGATTCAGCT
3. ACAGACAGGTGAGTGCAGGTAACTCAGCTGGACG
4. TCATATAGGTAAAGGTGAAAGACGAACGATATGA
5. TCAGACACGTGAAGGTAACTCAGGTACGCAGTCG
6. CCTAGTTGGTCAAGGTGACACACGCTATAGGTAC
7. CGTCAAAGTTCAACTAAGGGAACGTAAAGCACGC
8. AGTCAAAGTTCAGCTAGGTAACGTAAGATATGCT

Response line:
1: 5.88; 2: 5.03; 3: 0.091; 4: 1.51; 5: 0.176; 6: 1.49; 7: 5.85; 8: 4.23

Please supply PBM binding z-score for each of the following items, keeping them in order.
1. CTTACTGGGCCATCAGGTCATTGATATCAACGTT
2. AGATCGAGGGCACGCTGAGTTGATAGCAGAGTAG
3. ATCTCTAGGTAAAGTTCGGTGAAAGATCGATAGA
4. TCATATAGGTAAATGCGAGGTGAAAGTCCGATCT
5. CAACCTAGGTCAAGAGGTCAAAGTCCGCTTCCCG
6. CTCGAAAGGTCGCGCTCAGGTGAGTATACCAAAC
7. CCTCGGAGGATAACAGGAGGTCAGAGCTGCCAGA

Response line:
2.32
1.71
0.582
0.929
8.21
5.54
2.32

====

Tested on: RXRa DBDmut IVT, anti-RXR (DBD mutation: RXRa K156A/R161A, NR concentration 90 nM)
Test: PBM binding z-score (relative to random genomic background probes); higher = stronger binding; sequences stand for … in GC…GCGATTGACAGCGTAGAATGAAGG
Rule: PBM binding z-score under 0.4 gives Not satisfied, otherwise Satisfied.

Worked examples follow.
CAAACTAGATCACAGAGGTCAAAGTCCGTGCGTA ... Satisfied
GCAGACAGGTGAAGCGCAGGTAACTCAGGGTGGC ... Not satisfied

Prompt line: API: above_or_equal(metric=PBM binding z-score, cutoff=0.4) for item `GTACCAAGGTGAATAGTTCGTTGATGAGTAGGCG`
Response line: Not satisfied

Prompt line: // query: `TCGAGTAGGTTAGTCAGGGCATTCAGCCAACATA`
Response line: Not satisfied

Prompt line: Repeat with `ATCTCTAGGTAAAACTCAGTTCAGTGAAGAACGC`
Response line: Satisfied

Prompt line: Let us now turn to `CTACCAAGGCGAACAAGGTCGTTGATTACTATTC`
Response line: Satisfied

====

Tested on: RARb:RXRa (NR concentration 270 nM, RXRa partner concentration 90 nM)
Assay: PBM binding z-score (relative to random genomic background probes); higher = stronger binding; sequences stand for … in GC…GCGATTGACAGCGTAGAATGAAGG
Parameter measured: PBM binding z-score

The cases that follow already have their PBM binding z-score on record.
AGAACGCGGGCAATGAGTTGATAGCACGGGTGGC ... 0.349
CTCGAAAGGTCGGTTTAGGTGAGTATACGGATAA ... 2.66
CGAACTAGCTCATTGACAGGACAGTGAATAGTAA ... -0.386

I need PBM binding z-score for every entry listed below, if you could help.
1. CGTCCAAGGTCATAGGTGGTCAGTGAAGACAGAT
2. GGAACGAGGGCAGGTTGATAGCAGAGTTTGATGG
3. TATACAGGGGCAAAGGCCAGAGTACGAATGTCGA

Response line:
1. 4.89
2. 1.87
3. 2.1

====

System: PXR homodimer (NR concentration 270 nM)
Assay: PBM binding z-score (relative to random genomic background probes); higher = stronger binding; sequences stand for … in GC…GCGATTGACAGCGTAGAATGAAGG
Task for the reader: assign each of the following sequences its reported PBM binding z-score.
Numbers only.

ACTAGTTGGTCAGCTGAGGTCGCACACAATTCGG ... 0.134
ATCGAAAGGTCGACGTGAGTATAGAGAAAGGGAA ... 0.153
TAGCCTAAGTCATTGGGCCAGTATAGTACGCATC ... -0.814
CGAACTAGGTCAGAACAGGGCAGTGAAGGATGAT ... 0.00717
ACAGACAGGTGATGACGGTAACTCAGGCTATCAT ... -0.0472

# input for lookup
Prompt line: Bench note: what PBM binding z-score did `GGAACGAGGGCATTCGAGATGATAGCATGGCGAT` show?
Response line: 0.0214

====

Test system: RARb:RXRa (NR concentration 270 nM, RXRa partner concentration 90 nM)
Assay: PBM binding z-score (relative to random genomic background probes); higher = stronger binding; sequences stand for … in GC…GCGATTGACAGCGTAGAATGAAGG
What PBM binding z-score was measured for each of the following?

AGAATGAGGTTACCAAAGATCAGGTAAACGCTTG ... 2.09
ATCTCCAGGTAAAGATAGTTCAGTGAATGCAAAT ... 0.907
CCTAGTTGGTCAAGGTCAGACACGCTATAGGTAC ... 3.6

Working through the 2 sequences below one at a time, give PBM binding z-score for each.
1. TCTATTAGTTGATGAGGGCAACCGAAACAGCGGA
2. AGAACGAGGGCACGCTGAGTTAATAGCAGAGTAG

Response line:
1.41
2.52

I'm hoping you can list PBM binding z-score for every sequence here, please.
1. ATCGAAAGGTCGAGGTGAGTATAGAGAAAGGGAA
2. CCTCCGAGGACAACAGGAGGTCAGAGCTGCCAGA
3. AGTCAAGGTTCAGGACGAGGTAACGTAAAGCACG
4. TCTGCTAGGGCAGTTGGTCAGCTAACGAGCTGCC
5. TCTAGTTGGTCCAAGGTCACACACTCGAAATGCG
6. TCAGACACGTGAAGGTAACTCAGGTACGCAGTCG

Response line:
1. 4.18
2. 2.88
3. 2.38
4. 1.14
5. 3.53
6. 0.338

// for each sequence in input: emit PBM binding z-score
1. CTACCAGGGTGAACAAGGTCGTTGATTACTATTC
2. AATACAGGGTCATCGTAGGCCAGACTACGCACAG
3. TCGAGTAGGTTAGGGGGATTCAGAATGGCGTCGA

Response line:
[1.42, 4.5, 1.19]

Dear colleague, could you please provide PBM binding z-score for the sequences listed below?
1. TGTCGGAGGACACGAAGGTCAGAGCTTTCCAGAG
2. ATATGTAGGTTGCATCCGGGTCATTCAGGCTATG
3. GCTCGGAGGACAAGGTAAGAGCTTTGTCCGTAGA
4. CGGCAAAGTTCAAGGTAACGTAACAGAAAGCAGC
5. CGAGACAGGTGAAAGGTAACTCAGTCTGGTACGC
6. AGAACGAGGGCACGCTGAGTTGATTGCAGAGTAG
7. CGAACGAGGGCATGAGTTTATAGCAAATGCCGAT

Response line:
1. 3.46
2. 1.4
3. 0.88
4. 5.04
5. 1.19
6. 2.36
7. 2.11

Would you mind giving PBM binding z-score for every sequence in the list below?
1. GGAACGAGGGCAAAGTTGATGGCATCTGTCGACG
2. CCTACTGGGCCATTCAGAGGTCATTGAGCATATG
3. TCATATGGGTAAAGGTGAAAGTCGAACGATATGA

Response line:
2.48
3.14
1.79

Need PBM binding z-score for each of these sequences.
1. TCTTGTAGATCAGCAGGTGAAGAAAGCTGGCCAA
2. CCTAGCAGGCCAATCTGGGTCACGCAAGGCTTGA

Response line:
[-0.138, 1.92]

Kindly give each listed record's PBM binding z-score.
1. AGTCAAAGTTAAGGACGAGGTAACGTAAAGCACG
2. GCTGGTAGGTCAACTGATGGTCAGCTAAAGCTCG
3. TAGCCTAGGTCAGATCCGGCCAGTATACGCTATA
4. CGTCGAAGGTCAGAGAGGTCAGTGAATGCCGAGT

Response line:
1. 0.889
2. 4.29
3. 3.17
4. 5.05

# per-item lookup of PBM binding z-score; items listed below
1. TCATATAGGTAAAGTTGAAAGTCGAACGATATGA
2. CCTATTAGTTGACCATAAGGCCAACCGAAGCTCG

Response line:
[1.08, 1.34]

src = the supplement of paper PMC6555819
